Target: pEF-TuT382
Construct: gene tufA; full-length His-tagged EF-Tu phosphorylated at T382 in vitro by toxin Doc with ATP, repurified by SEC
Experiment: ITC
Type: binding, Escherichia coli
Conditions: 50 mM Hepes pH 7.4, 40 mM NH4Cl, 2 mM MgCl2, 1 mM TCEP, nucleotide-free protein; phosphorylated at T382; read-out: affinity
MEASUREMENT KIND: Kd (nM)

[[record]]
molecule = "Nc1nc2c(ncn2[C@@H]2O[C@H](COP(=O)(O)OP(=O)(O)O)[C@@H](O)[C@H]2O)c(=O)[nH]1"
value_reported = 5.7


====

Biological target: EF-Tu
Construct: gene tufA; full-length, His-tagged (pET-His-EF-Tu), expressed in E. coli BL21(DE3), nucleotide-free, unphosphorylated
Test: ITC
Design: species or system Escherichia coli
Details: 50 mM Hepes pH 7.4, 40 mM NH4Cl, 2 mM MgCl2, 1 mM TCEP
pKd: −log10 of the molar value.
MEASUREMENT KIND: pKd

[[record]]
compound = "Nc1nc2c(ncn2[C@@H]2O[C@H](COP(=O)(O)OP(=O)(O)NP(=O)(O)O)[C@@H](O)[C@H]2O)c(=O)[nH]1 [GDPNP, 5′-guanylyl imidodiphosphate]"
value_reported = 6.89


====

Molecular target: pEF-TuT382
Construct: gene tufA; full-length His-tagged EF-Tu phosphorylated at T382 in vitro by toxin Doc with ATP, repurified by SEC
Assay: ITC
Parameters: species or system Escherichia coli
Details: 50 mM Hepes pH 7.4, 40 mM NH4Cl, 2 mM MgCl2, 1 mM TCEP; phosphorylated at T382
MEASUREMENT KIND: Kd

[[record]]
compound = "Nc1nc2c(ncn2[C@@H]2O[C@H](COP(=O)(O)OP(=O)(O)NP(=O)(O)O)[C@@H](O)[C@H]2O)c(=O)[nH]1 [GDPNP, 5′-guanylyl imidodiphosphate]"
measurement_kind = "Kd"
value_reported = "320 nM"

